Just for reference, ChEMBL document CHEMBL1153358 is where these values come from.

The reader will find reported MIC values listed item by item below.
System: Candida albicans
test: Antifungal activity against Candida albicans ATCC 64550
Format: functional

molecule: C[C@@H](S[C@H]1CO[C@H](/C=C/C=C/c2ccc(C#N)cc2F)OC1)[C@](O)(Cn1cncn1)c1ccc(F)cc1F [EMBECONAZOLE]
target_under_test: Candida albicans
scale_unit: µg/mL
censoring_operator: =
MIC: 0.5
//
molecule: C[C@@H](S[C@H]1CO[C@H](c2ccc(C(=O)Nc3ccc(C#N)cc3)cc2)OC1)[C@](O)(Cn1cncn1)c1ccc(F)cc1F
target_under_test: Candida albicans
scale_unit: µg/mL
censoring_operator: =
MIC: 0.25
//
molecule: CCC(C)n1ncn(-c2ccc(N3CCN(c4ccc(OCC5COC(Cn6cncn6)(c6ccc(Cl)cc6Cl)O5)cc4)CC3)cc2)c1=O (centres undefined) [ITRACONAZOLE]
target_under_test: Candida albicans
scale_unit: µg/mL
censoring_operator: =
MIC: 1
//
molecule: OC(Cn1cncn1)(Cn1cncn1)c1ccc(F)cc1F [FLUCONAZOLE]
target_under_test: Candida albicans
scale_unit: µg/mL
censoring_operator: >
MIC: 4

###

System: Candida tropicalis
test: Antifungal activity against Candida tropicalis ATCC 750
Format: functional

compound: C[C@@H](S[C@H]1CO[C@H](c2ccc(C(=O)Nc3ccc(Br)cc3)cc2)OC1)[C@](O)(Cn1cncn1)c1ccc(F)cc1F
target_under_test: Candida tropicalis
censoring_operator: ≤
MIC / µg/mL: 0.008

compound: C[C@@H](S[C@H]1CO[C@H](c2ccc(C(=O)Nc3ccc(C#N)cc3F)cc2)OC1)[C@](O)(Cn1cncn1)c1ccc(F)cc1F
target_under_test: Candida tropicalis
censoring_operator: =
MIC / µg/mL: 0.031

compound: CCC(C)n1ncn(-c2ccc(N3CCN(c4ccc(OCC5COC(Cn6cncn6)(c6ccc(Cl)cc6Cl)O5)cc4)CC3)cc2)c1=O (centres undefined)
target_under_test: Candida tropicalis
censoring_operator: =
MIC / µg/mL: 0.5

compound: C[C@@H](S[C@H]1CO[C@H](/C=C/C=C/c2ccc(F)cc2)OC1)[C@](O)(Cn1cncn1)c1ccc(F)cc1F
target_under_test: Candida tropicalis
censoring_operator: =
MIC / µg/mL: 0.25

###

System: Candida tropicalis
test: Antifungal activity against Candida tropicalis ATCC 750
Type: functional
Catalogue of MIC values

input_smiles: C[C@@H](S[C@H]1CO[C@H](c2ccc(C(=O)Nc3ccc(O)cc3)cc2)OC1)[C@](O)(Cn1cncn1)c1ccc(F)cc1F
scale_unit: µg/mL
MIC: 0.25

input_smiles: C[C@@H](S[C@H]1CO[C@H](/C=C/S(=O)(=O)c2ccc(F)cc2)OC1)[C@](O)(Cn1cncn1)c1ccc(F)cc1F.O=C(O)/C=C\C(=O)O
scale_unit: µg/mL
MIC: 0.5

input_smiles: C[C@@H](S[C@H]1CO[C@H](c2ccc3cc(C(=O)Nc4ccc(C#N)cc4)ccc3c2)OC1)[C@](O)(Cn1cncn1)c1ccc(F)cc1F
scale_unit: µg/mL
MIC: 0.016

input_smiles: C[C@@H](S[C@H]1CO[C@H](c2ccc(C(=O)Nc3ccncc3)cc2)OC1)[C@](O)(Cn1cncn1)c1ccc(F)cc1F
scale_unit: µg/mL
MIC: 0.125

###

Tested on: Cryptococcus neoformans
test: Antifungal activity against Cryptococcus neoformans TIMM 1855
Assay type: functional
assay_endpoint: MIC

input_smiles: C[C@@H](S[C@H]1CO[C@H](c2ccc(C(=O)N3CCSCC3)cc2)OC1)[C@](O)(Cn1cncn1)c1ccc(F)cc1F
result: 0.031 µg/mL

input_smiles: C[C@@H](S[C@H]1CO[C@H](/C=C/C=C/c2ccc(F)cc2)OC1)[C@](O)(Cn1cncn1)c1ccc(F)cc1F
result: 0.016 µg/mL

input_smiles: C[C@@H](S[C@H]1CO[C@H](/C=C/C(=O)Nc2ccc(F)cc2)OC1)[C@](O)(Cn1cncn1)c1ccc(F)cc1F
result: 0.125 µg/mL

input_smiles: C[C@@H](S[C@H]1CO[C@H](c2ccc3cc(C(=O)Nc4ccc(C#N)cc4)ccc3c2)OC1)[C@](O)(Cn1cncn1)c1ccc(F)cc1F
result: 0.063 µg/mL

input_smiles: C[C@@H](S[C@H]1CO[C@H](c2ccc(C(=O)Nc3ccc(Cl)cc3)cc2)OC1)[C@](O)(Cn1cncn1)c1ccc(F)cc1F
result: 0.016 µg/mL

input_smiles: C[C@@H](S[C@H]1CO[C@H](c2ccc(C(=O)Nc3ccc(C#N)c(Cl)c3)cc2)OC1)[C@](O)(Cn1cncn1)c1ccc(F)cc1F
result: 0.031 µg/mL

input_smiles: C[C@@H](S[C@H]1CO[C@H](c2cccc(C(=O)Nc3ccc(C#N)cc3)c2)OC1)[C@](O)(Cn1cncn1)c1ccc(F)cc1F
result: 1 µg/mL

###

test: Chemical stability assessed as half life in HCl
Format: physicochemical
Reported half-life values for a set of compounds
assay_endpoint: half-life (h)

compound: C[C@@H](S[C@H]1CO[C@H](c2ccc(C(=O)Nc3ccc(C#N)cc3)cc2)OC1)[C@](O)(Cn1cncn1)c1ccc(F)cc1F
assay_endpoint: half-life
numeric_value: 2.67
--
compound: C[C@@H](S[C@H]1CO[C@H](/C=C/C=C/c2ccc(C#N)cc2F)OC1)[C@](O)(Cn1cncn1)c1ccc(F)cc1F [EMBECONAZOLE]
assay_endpoint: half-life
numeric_value: 0.107

###

Quick list: MIC per entry.
System: Cryptococcus neoformans
test: Antifungal activity against Cryptococcus neoformans TIMM 1855
Type: functional

compound: C[C@@H](S[C@H]1CO[C@H](c2ccc(C(=O)N3CCOCC3)cc2)OC1)[C@](O)(Cn1cncn1)c1ccc(F)cc1F
scale_unit: µg/mL
censoring_operator: =
MIC: 0.125
--
compound: C[C@@H](S[C@H]1CO[C@H](c2ccc(C(=O)Nc3nccs3)cc2)OC1)[C@](O)(Cn1cncn1)c1ccc(F)cc1F
scale_unit: µg/mL
censoring_operator: =
MIC: 0.125
--
compound: CC(=O)c1ccc(NC(=O)c2ccc([C@H]3OC[C@H](S[C@H](C)[C@](O)(Cn4cncn4)c4ccc(F)cc4F)CO3)cc2)cc1
scale_unit: µg/mL
censoring_operator: =
MIC: 0.125
--
compound: C[C@@H](S[C@H]1CO[C@H](c2ccc(C(=O)Nc3ccncc3)cc2)OC1)[C@](O)(Cn1cncn1)c1ccc(F)cc1F
scale_unit: µg/mL
censoring_operator: =
MIC: 0.125
--
compound: OC(Cn1cncn1)(Cn1cncn1)c1ccc(F)cc1F [FLUCONAZOLE]
scale_unit: µg/mL
censoring_operator: >
MIC: 4
--
compound: C[C@@H](S[C@H]1CO[C@H](c2ccc(C(=O)Nc3ccc(C#N)c(C#N)c3)cc2)OC1)[C@](O)(Cn1cncn1)c1ccc(F)cc1F
scale_unit: µg/mL
censoring_operator: =
MIC: 0.063
--
compound: C[C@@H](S[C@H]1CO[C@H](c2ccc(C(=O)Nc3ccc(C#N)cc3)cc2F)OC1)[C@](O)(Cn1cncn1)c1ccc(F)cc1F
scale_unit: µg/mL
censoring_operator: =
MIC: 0.031

###

Each entry below carries its recorded MIC.
Test system: Candida tropicalis
test: Antifungal activity against Candida tropicalis ATCC 750
Format: functional

input_smiles: C[C@@H](S[C@H]1CO[C@H](c2ccc(C(=O)Nc3ccc(OCC(F)(F)C(F)F)cc3)cc2)OC1)[C@](O)(Cn1cncn1)c1ccc(F)cc1F
scale_unit: µg/mL
censoring_operator: =
MIC: 0.125
--
input_smiles: C[C@@H](S[C@H]1CO[C@H](c2ccc(C(=O)N3CCSCC3)cc2)OC1)[C@](O)(Cn1cncn1)c1ccc(F)cc1F
scale_unit: µg/mL
censoring_operator: =
MIC: 0.5
--
input_smiles: C[C@@H](S[C@H]1CO[C@H](c2ccc(C(=O)N3CCN(c4ccccc4)CC3)cc2)OC1)[C@](O)(Cn1cncn1)c1ccc(F)cc1F
scale_unit: µg/mL
censoring_operator: =
MIC: 0.5
--
input_smiles: C[C@@H](S[C@H]1CO[C@H](/C=C/C(=O)c2ccc(F)cc2)OC1)[C@](O)(Cn1cncn1)c1ccc(F)cc1F.O=C(O)/C=C\C(=O)O
scale_unit: µg/mL
censoring_operator: =
MIC: 0.5
--
input_smiles: Cc1ccc(NC(=O)c2ccc([C@H]3OC[C@H](S[C@H](C)[C@](O)(Cn4cncn4)c4ccc(F)cc4F)CO3)cc2)cc1
scale_unit: µg/mL
censoring_operator: ≤
MIC: 0.008
--
input_smiles: C[C@@H](S[C@H]1CO[C@H](c2ccc(C(=O)N3CCOCC3)cc2)OC1)[C@](O)(Cn1cncn1)c1ccc(F)cc1F
scale_unit: µg/mL
censoring_operator: =
MIC: 1
--
input_smiles: C[C@@H](S[C@H]1CO[C@H](/C=C/C=C/c2ccc(C#N)cc2F)OC1)[C@](O)(Cn1cncn1)c1ccc(F)cc1F
scale_unit: µg/mL
censoring_operator: =
MIC: 0.25
--
input_smiles: C[C@@H](S[C@H]1CO[C@H](c2ccc(C(=O)Nc3ccc(C#N)cc3)cc2)OC1)[C@](O)(Cn1cncn1)c1ccc(F)cc1F
scale_unit: µg/mL
censoring_operator: =
MIC: 0.016
